biological target: Muscarinic acetylcholine receptor M2 (Homo sapiens); assay: Competitive displacement of [3H]-NMS from human muscarinic M2 receptor expressed in CHO-K9 cells using 2 nM [3H]-NMS after 3 hrs by microbeta2 scintillation counting method; type: cell-based
Sequence (P08172 whole entry): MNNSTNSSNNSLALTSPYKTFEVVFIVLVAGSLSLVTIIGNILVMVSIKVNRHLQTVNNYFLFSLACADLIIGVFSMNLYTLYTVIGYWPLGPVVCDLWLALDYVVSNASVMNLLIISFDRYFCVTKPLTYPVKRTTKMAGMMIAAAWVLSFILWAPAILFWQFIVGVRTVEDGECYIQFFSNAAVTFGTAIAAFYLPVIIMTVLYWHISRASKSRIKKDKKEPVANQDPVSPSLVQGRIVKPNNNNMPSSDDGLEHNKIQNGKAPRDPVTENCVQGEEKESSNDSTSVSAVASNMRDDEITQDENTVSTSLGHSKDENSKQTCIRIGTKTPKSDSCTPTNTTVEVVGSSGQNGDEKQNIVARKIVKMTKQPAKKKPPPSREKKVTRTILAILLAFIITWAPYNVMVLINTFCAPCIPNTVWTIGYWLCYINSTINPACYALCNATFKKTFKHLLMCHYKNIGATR
Give Ki for every item shown.
Numbers only, in nM.

CC(=O)N[C@@H](CCCCN)C(=O)N[C@@H](CCCNC(=N)N)C(=O)NCCCCC1CCN(CC(=O)N2c3ccccc3NC(=O)c3ccccc32)CC1
2.04

Now examine the next entry.
*Q* May I ask what Ki has been recorded for `CC(=O)N[C@@H](CCCCN)C(=O)N[C@@H](C)C(=O)N[C@@H](CCCNC(=N)N)C(=O)NCCN1CCN(CCCCC2CCN(CC(=O)N3c4ccccc4NC(=O)c4ccccc43)CC2)CC1` ?
*A* 0.0794

* * *

Target: Muscarinic acetylcholine receptor M5 (Homo sapiens, UniProt P08912)
Sequence (P08912 whole entry): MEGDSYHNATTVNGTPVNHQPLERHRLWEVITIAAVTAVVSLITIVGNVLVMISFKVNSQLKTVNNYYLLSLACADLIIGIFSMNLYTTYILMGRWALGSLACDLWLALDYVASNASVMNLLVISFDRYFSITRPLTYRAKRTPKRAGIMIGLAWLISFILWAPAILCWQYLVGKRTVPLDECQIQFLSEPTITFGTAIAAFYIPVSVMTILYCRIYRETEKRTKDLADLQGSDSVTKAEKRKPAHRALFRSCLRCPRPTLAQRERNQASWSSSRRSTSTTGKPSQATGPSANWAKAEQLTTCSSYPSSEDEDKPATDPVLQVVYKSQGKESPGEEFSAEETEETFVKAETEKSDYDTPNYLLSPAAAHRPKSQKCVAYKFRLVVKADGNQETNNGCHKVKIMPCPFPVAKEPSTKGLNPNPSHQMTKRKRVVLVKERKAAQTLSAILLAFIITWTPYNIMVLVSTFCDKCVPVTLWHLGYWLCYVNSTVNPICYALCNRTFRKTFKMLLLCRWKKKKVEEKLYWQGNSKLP
Assay: Binding affinity to muscarinic M5 receptor (unknown origin) expressed in CHO cells
Assay type: cell-based
READOUT: Ki
Include the unit after the number when you answer.

Hi there! I need Ki for each item below, if you can.
1. CCCC(C)(C)C(=O)N(CC)CCCC1CCN(CC(=O)N2c3ccccc3NC(=O)c3ccccc32)CC1
2. CCN(CC)CCCCC1CCN(CC(=O)N2c3ccccc3C(=O)Nc3cccnc32)CC1

*A*
316 nM
1260 nM

* * *

molecular target: UniProtKB P08173; assay: Binding affinity to muscarinic M4 receptor (unknown origin) expressed in CHO cells; type: cell-based
Sequence (P08173 whole entry): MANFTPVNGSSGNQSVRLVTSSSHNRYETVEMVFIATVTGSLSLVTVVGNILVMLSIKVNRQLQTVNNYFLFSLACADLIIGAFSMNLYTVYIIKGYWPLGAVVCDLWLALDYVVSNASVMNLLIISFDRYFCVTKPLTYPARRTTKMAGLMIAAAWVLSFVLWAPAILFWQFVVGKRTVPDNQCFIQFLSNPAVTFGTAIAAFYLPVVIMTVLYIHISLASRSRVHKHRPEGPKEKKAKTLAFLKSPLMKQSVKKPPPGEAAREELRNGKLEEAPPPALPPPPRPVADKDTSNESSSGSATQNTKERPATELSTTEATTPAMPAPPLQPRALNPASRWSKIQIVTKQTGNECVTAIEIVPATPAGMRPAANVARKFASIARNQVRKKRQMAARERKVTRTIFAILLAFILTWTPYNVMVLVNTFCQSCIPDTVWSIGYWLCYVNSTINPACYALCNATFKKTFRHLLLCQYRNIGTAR
READOUT: Ki (nM)
Numbers only, in nM.

CCCC(C)(C)C(=O)N(CC)CCCC1CCN(CC(=O)N2c3ccccc3NC(=O)c3ccccc32)CC1
50.1

Let's switch to this compound now.
*Q* So what Ki did `CCN(CC)CCCCC1CCN(CC(=O)N2c3ccccc3C(=O)Nc3cccnc32)CC1` get with UniProtKB P08173?
*A* 7.94

* * *

target: Muscarinic acetylcholine receptor M2 and M5 (Homo sapiens) (UniProt P08172+P08912); assay: Selectivity ratio of Ki for human muscarinic M5 receptor expressed in CHO-K9 cells to Ki for human muscarinic M2 receptor expressed in CHO-K9 cells; format: cell-based
Sequence (P08172 whole entry, looked up, one chain of several): as the sequence (P08172 whole entry) above
Would you kindly list Ratio Ki for each of these molecules?
Numbers only.

Field: example entries. Status: answers known.
CC(=O)N[C@@H](CCCCN)C(=O)N[C@@H](C)C(=O)N[C@@H](CCCNC(=N)N)C(=O)NCCN1CCN(CCCCC2CCN(CC(=O)N3c4ccccc4NC(=O)c4ccccc43)CC2)CC1
4900
CC(=O)N[C@@H](CCCNC(=N)N)C(=O)NCCCCC1CCN(CC(=O)N2c3ccccc3NC(=O)c3ccccc32)CC1
86
N=C(N)NCCC[C@H](N)C(=O)NCCCCC1CCN(CC(=O)N2c3ccccc3NC(=O)c3ccccc32)CC1
410
CC(=O)N[C@@H](Cc1ccc(O)cc1)C(=O)N[C@@H](C)C(=O)N[C@@H](CCCCN)C(=O)NCCCCC1CCN(CC(=O)N2c3ccccc3NC(=O)c3ccccc32)CC1
23
CC(=O)N[C@@H](CCCCN)C(=O)N[C@@H](Cc1ccc(O)cc1)C(=O)NCCCCC1CCN(CC(=O)N2c3ccccc3NC(=O)c3ccccc32)CC1
43

Proceeding to the next molecule to report its Ratio Ki.
*Q* Look up Ratio Ki: `CC(=O)N[C@@H](CCCCN)C(=O)N[C@@H](C)C(=O)N[C@@H](Cc1ccc(O)cc1)C(=O)NCCN1CCN(CCCCC2CCN(CC(=O)N3c4ccccc4NC(=O)c4ccccc43)CC2)CC1`
*A* 560

* * *

biological target: Muscarinic acetylcholine receptor M2 (Homo sapiens); test: Displacement of [3H]-NMS from human muscarinic M2 receptor expressed in CHO-K9 cells after 3 hrs by microbeta2 scintillation counting method; type: cell-based
So I've got a bunch of molecules here, and I need their log10(Ki) values.
Values are log10 of Ki in nM.

CC(=O)N[C@@H](CCC(N)=O)C(=O)N[C@@H](C)C(=O)N[C@@H](CC(C)C)C(=O)NCCN1CCN(CCCCC2CCN(CC(=O)N3c4ccccc4NC(=O)c4ccccc43)CC2)CC1
-0.45
CC(=O)N[C@@H](CCCCN)C(=O)N[C@@H](Cc1ccc(O)cc1)C(=O)NCCN1CCN(CCCCC2CCN(CC(=O)N3c4ccccc4NC(=O)c4ccccc43)CC2)CC1
-1.10
CC(=O)N[C@@H](CCC(N)=O)C(=O)N[C@@H](C)C(=O)N[C@@H](CC(C)C)C(=O)NCCCCC1CCN(CC(=O)N2c3ccccc3NC(=O)c3ccccc32)CC1
2.38
CC(=O)N[C@@H](CCCCN)C(=O)N[C@@H](C)C(=O)N[C@@H](CCCNC(=N)N)C(=O)NCCN1CCN(CCCCC2CCN(CC(=O)N3c4ccccc4NC(=O)c4ccccc43)CC2)CC1
-1.20
CC(=O)N[C@@H](CCC(N)=O)C(=O)N[C@@H](CC(C)C)C(=O)NCCN1CCN(CCCCC2CCN(CC(=O)N3c4ccccc4NC(=O)c4ccccc43)CC2)CC1
-0.62

For every listed record, write down its log10(Ki).
1. CC(=O)N[C@@H](Cc1c[nH]c2ccccc12)C(=O)N[C@@H](C)C(=O)N[C@@H](Cc1ccc(O)cc1)C(=O)NCCCCC1CCN(CC(=O)N2c3ccccc3NC(=O)c3ccccc32)CC1
2. CC(=O)N[C@@H](CCCCN)C(=O)N[C@@H](CCCNC(=N)N)C(=O)NCCN1CCN(CCCCC2CCN(CC(=O)N3c4ccccc4NC(=O)c4ccccc43)CC2)CC1
3. CC(=O)N[C@@H](Cc1ccc(O)cc1)C(=O)N[C@@H](C)C(=O)N[C@@H](CCCCN)C(=O)NCCN1CCN(CCCCC2CCN(CC(=O)N3c4ccccc4NC(=O)c4ccccc43)CC2)CC1
4. CC(=O)N[C@@H](CCCNC(=N)N)C(=O)N[C@@H](CCCCN)C(=O)NCCCCC1CCN(CC(=O)N2c3ccccc3NC(=O)c3ccccc32)CC1
5. CC(=O)N[C@@H](CCCCN)C(=O)N[C@@H](C)C(=O)N[C@@H](Cc1ccc(O)cc1)C(=O)NCCCCC1CCN(CC(=O)N2c3ccccc3NC(=O)c3ccccc32)CC1
6. CCC(=O)NCCCCC1CCN(CC(=O)N2c3ccccc3NC(=O)c3ccccc32)CC1
7. CC(=O)N[C@@H](CCCCN)C(=O)N[C@@H](C)C(=O)N[C@@H](Cc1ccc(O)cc1)C(=O)NCCN1CCN(CCCCC2CCN(CC(=O)N3c4ccccc4NC(=O)c4ccccc43)CC2)CC1

*A*
1: 1.30; 2: -1.20; 3: -0.94; 4: 1.08; 5: 0.63; 6: 1.90; 7: -0.76

* * *

target: Muscarinic acetylcholine receptor M1 (Homo sapiens); assay: Displacement of [3H]-NMS from human muscarinic M1 receptor expressed in CHO-K1 cells by scintillation counting method; type: cell-based
Sequence (P11229 whole entry): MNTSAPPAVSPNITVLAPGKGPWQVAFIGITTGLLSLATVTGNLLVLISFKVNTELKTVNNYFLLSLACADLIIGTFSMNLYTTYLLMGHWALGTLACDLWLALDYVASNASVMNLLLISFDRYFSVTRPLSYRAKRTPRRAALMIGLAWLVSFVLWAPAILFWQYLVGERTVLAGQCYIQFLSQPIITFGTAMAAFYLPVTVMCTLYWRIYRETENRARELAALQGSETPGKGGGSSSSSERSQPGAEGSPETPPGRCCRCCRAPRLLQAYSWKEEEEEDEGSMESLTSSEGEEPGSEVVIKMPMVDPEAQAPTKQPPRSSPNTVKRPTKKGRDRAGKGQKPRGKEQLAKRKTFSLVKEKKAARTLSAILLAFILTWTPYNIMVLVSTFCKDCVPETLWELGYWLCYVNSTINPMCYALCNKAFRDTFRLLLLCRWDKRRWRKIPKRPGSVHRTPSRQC
READOUT: Ki (nM)
Numbers only, in nM.

*Q* Reported Ki, compound `CCCC(C)(C)C(=O)N(CC)CCCC1CCN(CC(=O)N2c3ccc(Cl)cc3C(=O)Nc3cccnc32)CC1` : ____
*A* 1070

* * *

target: Muscarinic acetylcholine receptors; M1 & M2 (Homo sapiens) (UniProt P11229+P08172); experiment: Selectivity ratio of Ki for human muscarinic M1 receptor expressed in CHO-K9 cells to Ki for human muscarinic M2 receptor expressed in CHO-K9 cells; format: cell-based
READOUT: Ratio Ki
Numbers only.

CC(=O)N[C@@H](Cc1ccc(O)cc1)C(=O)N[C@@H](C)C(=O)N[C@@H](CCCCN)C(=O)NCCN1CCN(CCCCC2CCN(CC(=O)N3c4ccccc4NC(=O)c4ccccc43)CC2)CC1
22
CC(=O)N[C@@H](CCCCN)C(=O)N[C@@H](C)C(=O)N[C@@H](CCCNC(=N)N)C(=O)NCCCCC1CCN(CC(=O)N2c3ccccc3NC(=O)c3ccccc32)CC1
15

Attention now turns to another entry.
*Q* Report Ratio Ki for `CC(=O)N[C@@H](CCCNC(=N)N)C(=O)N[C@@H](CCCNC(=N)N)C(=O)NCCCCC1CCN(CC(=O)N2c3ccccc3NC(=O)c3ccccc32)CC1` please.
*A* 12

Ref: ChEMBL document CHEMBL4396879
